Would you kindly list Surface Tension @ 2000 ppm for each of these molecules?
Experiment: Surface tension measurements in tributyl phosphate
Assay type: physicochemical
Settings: 2000 ppm in tributyl phosphate
Protocol: All surface tensions were determined using a Kruss K12 Tensiometer. The tensiometer was integrated with an automatic dosimat and a computer, using a software package for dynamic contact angle (K121). The program was run using a Wilhelmy platinum plate (PL12) and glass sample vessel (GL7). All parts referenced above including instrument and computer are available from Kruss USA, Charlotte, N.C. […]
Express the result in dyne/cm but write the number alone.

stdin: Which Surface Tension @ 2000 ppm is reported for this molecule? O=S(=O)([O-])C(F)(F)C(F)(F)C(F)(F)C(F)(F)C(F)(F)C(F)(F)C(F)(F)C(F)(F)F.[K+] [Example C8F17SO3K, Potassium perfluorooctanesulfonate]
stdout: 26.96

stdin: Which Surface Tension @ 2000 ppm is reported for this molecule? O=S(=O)([O-])C(F)(F)C(F)(F)C(F)(F)C(F)(F)F.[K+] [Example C4F9SO3K, Potassium perfluorobutanesulfonate]
stdout: 27.32

stdin: Which Surface Tension @ 2000 ppm is reported for this molecule? O.O.O.O.O.O.O=S(=O)([O-])C(F)(F)C(F)(F)C(F)(F)C(F)(F)F.O=S(=O)([O-])C(F)(F)C(F)(F)C(F)(F)C(F)(F)F.[Mg+2] [Mg(SO3C4F9)2 · 6H2O]
stdout: 26.93

stdin: Which Surface Tension @ 2000 ppm is reported for this molecule? O=S(=O)([N-]S(=O)(=O)C(F)(F)C(F)(F)C(F)(F)C(F)(F)F)C(F)(F)C(F)(F)C(F)(F)C(F)(F)F.O=S(=O)([N-]S(=O)(=O)C(F)(F)C(F)(F)C(F)(F)C(F)(F)F)C(F)(F)C(F)(F)C(F)(F)C(F)(F)F.[Mg+2] [Mg (DBI)2, Mg^+2[^−N(SO2C4F9)2]2]
stdout: 27.04

stdin: Which Surface Tension @ 2000 ppm is reported for this molecule? O=S(=O)([O-])C(F)(F)C(F)(F)C(F)(F)C(F)(F)C(F)(F)C(F)(F)C(F)(F)C(F)(F)F.O=S(=O)([O-])C(F)(F)C(F)(F)C(F)(F)C(F)(F)C(F)(F)C(F)(F)C(F)(F)C(F)(F)F.[Mg+2]
stdout: 27.36

Measured values drawn from patent US7030067B2 for this set.
